Source of measurements: the supplement of paper PMC10567573

B1: ADD1 (parent)
chain: GEGTGSPPKWQIGEQEFEALMRML

variants of: B1; test: protein stability index of a GFP-peptide fusion (GPS, HEK-293T) (PSI 1-6); higher = more stable; conditions: c terminus: a fixed tail appended;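 further: lentivirally expressed fusions sorted by FACS into six bins by GFP to DsRed ratio, PSI derived from sequencing read proportions per bin multiplied by bin number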
Let's look at some variants and their measured protein stability index.
Answer with a bare number; do not write a unit.

Below: 8 variants and their reported protein stability index.
GEGRGSPPKWQIGEQEFEALMRML :: 3.44
GEGTGSPPKWQIGEQEFESLMRML :: 2.94
GEGTGSPPKWQIIEQEFEALMRML :: 2.92
GEGTGAPPKWQIGEQEFEALMRML :: 2.87
GEGTGIPPKWQIGEQEFEALMRML :: 2.75
GEGTISPPKWQIGEQEFEALMRML :: 2.74
GEGTGSPPKWQDGEQEFEALMRML :: 4.45
GEGTGSPEKWQIGEQEFEALMRML :: 3.66

The reported protein stability index of the variant `GEGTGSPPKWQIGEQEFEALMAML` was 3.18

The reported protein stability index of the variant `GEGTGSPPKWYIGEQEFEALMRML` was 2.57

The reported protein stability index of the variant `GEGTGSPPKWQIGEQEEEALMRML` was 4.52
